These entries and their values trace back to patent US20210388087A1.

- target under test: T1, Human CD3eg linker (human)
- T1 construct: single-chain construct; also called recombinant human CD3
- T1 chain: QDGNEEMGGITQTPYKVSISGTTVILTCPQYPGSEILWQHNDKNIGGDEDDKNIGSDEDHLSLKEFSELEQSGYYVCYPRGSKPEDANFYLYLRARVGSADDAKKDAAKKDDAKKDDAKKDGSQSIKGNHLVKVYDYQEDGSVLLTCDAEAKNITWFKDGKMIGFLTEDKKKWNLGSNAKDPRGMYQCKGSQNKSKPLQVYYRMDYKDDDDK
- assay summary: SPR, vs unmutated H183/L072
Quick reference: fold change of affinity of the listed items.

binder	value unit	fold change of affinity
dBBDu183H Y94S/dBBDu072L (antibody, name in Kabat numbering, V domains shown) VH: QVQLVESGGGLVQPGRSLRLSCAASGFTFSNAWMHWVRQAPGKGLEWVAQIKDKGNAYAAYYAPSVKGRFTISRDDSKNSIYLQMNSLKTEDTAVYYCHSVHYASASTVLPAFGVDAWGQGTTVTVSS VL: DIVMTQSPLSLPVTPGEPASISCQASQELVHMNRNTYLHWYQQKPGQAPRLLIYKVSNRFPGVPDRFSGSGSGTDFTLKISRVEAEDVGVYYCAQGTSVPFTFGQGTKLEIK	fold	0
dBBDu183H P100eS/dBBDu072L (antibody, name in Kabat numbering, V domains shown) VH: QVQLVESGGGLVQPGRSLRLSCAASGFTFSNAWMHWVRQAPGKGLEWVAQIKDKGNAYAAYYAPSVKGRFTISRDDSKNSIYLQMNSLKTEDTAVYYCHYVHYASASTVLSAFGVDAWGQGTTVTVSS VL: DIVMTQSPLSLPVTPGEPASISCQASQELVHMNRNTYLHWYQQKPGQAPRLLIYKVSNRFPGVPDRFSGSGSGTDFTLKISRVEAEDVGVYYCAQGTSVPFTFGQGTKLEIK	fold	1.2
dBBDu183H S99Q/dBBDu072L (antibody, name in Kabat numbering, V domains shown) VH: QVQLVESGGGLVQPGRSLRLSCAASGFTFSNAWMHWVRQAPGKGLEWVAQIKDKGNAYAAYYAPSVKGRFTISRDDSKNSIYLQMNSLKTEDTAVYYCHYVHYAQASTVLPAFGVDAWGQGTTVTVSS VL: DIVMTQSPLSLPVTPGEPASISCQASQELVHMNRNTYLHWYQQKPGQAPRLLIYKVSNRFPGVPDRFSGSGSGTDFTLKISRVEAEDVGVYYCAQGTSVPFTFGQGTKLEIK	fold	1
